- reported.conditions: n-octanol/water, Au by FAAS
measurement.label: log P

Identify the reported log P for the following entry. [Cl][Au].c1ccc(P(c2ccccc2)c2ccccc2)cc1 [Compound 27, (Triphenylphosphine)gold Chloride] >3.94

// fetch log P given entry CCCC[P+](CCCC)(CCCC)[Au-][S][C@@H]1OC(COC(C)=O)[C@@H](OC(C)=O)[C@H](OC(C)=O)C1OC(C)=O (stereo partly drawn) >4.32

Tell me its log P given CC(=O)OCC1O[C@@H]([S][Au-][P+](c2ccc(C(F)(F)F)cc2)(c2ccc(C(F)(F)F)cc2)c2ccc(C(F)(F)F)cc2)C(OC(C)=O)[C@@H](OC(C)=O)[C@@H]1OC(C)=O (stereo partly drawn) as the entry. >3.55
